meta.source: patent US5922580A

List of Trehalose values.
# Tested on: glucoamylase
# measurement_protocol: Enzymatic hydrolysis by glucoamylase
# Format: biochemical
# condition_label: 50 mg in 1 ml 50 mM acetate buffer pH 4.5, one unit glucoamylase, 40° C., 6 hours; HPLC
Enter your answer as a number in %; do not include the unit.

Completed entries (count: 2):
compound	Trehalose [%]
OC[C@H]1O[C@H](O[C@H]2O[C@H](CO)[C@@H](O[C@H]3O[C@H](CO)[C@@H](O[C@H]4O[C@H](CO)[C@@H](O[C@H]5O[C@H](CO)[C@@H](O)[C@H](O)[C@H]5O)[C@H](O)[C@H]4O)[C@H](O)[C@H]3O)[C@H](O)[C@H]2O)[C@H](O)[C@@H](O)[C@@H]1O [P III, α-maltotriosyl trehalose]	38.6
OC[C@H]1O[C@H](O[C@H]2O[C@H](CO)[C@@H](O[C@H]3O[C@H](CO)[C@@H](O[C@H]4O[C@H](CO)[C@@H](O)[C@H](O)[C@H]4O)[C@H](O)[C@H]3O)[C@H](O)[C@H]2O)[C@H](O)[C@@H](O)[C@@H]1O [P II, α-maltosyl trehalose]	48.0

In the following, a different compound is considered.
// query May I ask what Trehalose has been recorded for OC[C@H]1O[C@H](O[C@H]2O[C@H](CO)[C@@H](O[C@H]3O[C@H](CO)[C@@H](O)[C@H](O)[C@H]3O)[C@H](O)[C@H]2O)[C@H](O)[C@@H](O)[C@@H]1O [P I, α-glucosyl trehalose] ?
// result 63.8

* * *

List of Saccharide composition of hydrolysate with rat intestinal acetone powder: Trehalose values.
# Tested on: rat intestinal acetone powder
# measurement_protocol: Hydrolysis by rat intestinal acetone powder
# Format: in vitro ADME
# condition_label: 50 mM maleate buffer pH 6.0, 37° C., 18 hours
Enter your answer as a number in %; do not include the unit.

Completed entries (count: 3):
smiles	numeric_result
OC[C@H]1O[C@H](O[C@H]2O[C@H](CO)[C@@H](O[C@H]3O[C@H](CO)[C@@H](O[C@H]4O[C@H](CO)[C@@H](O[C@H]5O[C@H](CO)[C@@H](O[C@H]6O[C@H](CO)[C@@H](O[C@H]7O[C@H](CO)[C@@H](O)[C@H](O)[C@H]7O)[C@H](O)[C@H]6O)[C@H](O)[C@H]5O)[C@H](O)[C@H]4O)[C@H](O)[C@H]3O)[C@H](O)[C@H]2O)[C@H](O)[C@@H](O)[C@@H]1O	26.5
OC[C@H]1O[C@H](O[C@H]2O[C@H](CO)[C@@H](O[C@H]3O[C@H](CO)[C@@H](O[C@H]4O[C@H](CO)[C@@H](O[C@H]5O[C@H](CO)[C@@H](O[C@H]6O[C@H](CO)[C@@H](O)[C@H](O)[C@H]6O)[C@H](O)[C@H]5O)[C@H](O)[C@H]4O)[C@H](O)[C@H]3O)[C@H](O)[C@H]2O)[C@H](O)[C@@H](O)[C@@H]1O	30.8
OC[C@H]1O[C@H](O[C@H]2O[C@H](CO)[C@@H](O[C@H]3O[C@H](CO)[C@@H](O[C@H]4O[C@H](CO)[C@@H](O[C@H]5O[C@H](CO)[C@@H](O)[C@H](O)[C@H]5O)[C@H](O)[C@H]4O)[C@H](O)[C@H]3O)[C@H](O)[C@H]2O)[C@H](O)[C@@H](O)[C@@H]1O	37.6

// query May I ask what Saccharide composition of hydrolysate with rat intestinal acetone powder: Trehalose has been recorded for OC[C@H]1O[C@H](O[C@H]2O[C@H](CO)[C@@H](O[C@H]3O[C@H](CO)[C@@H](O)[C@H](O)[C@H]3O)[C@H](O)[C@H]2O)[C@H](O)[C@@H](O)[C@@H]1O ?
// result 62.4

// query May I ask what Saccharide composition of hydrolysate with rat intestinal acetone powder: Trehalose has been recorded for OC[C@H]1O[C@H](O[C@H]2O[C@H](CO)[C@@H](O[C@H]3O[C@H](CO)[C@@H](O[C@H]4O[C@H](CO)[C@@H](O)[C@H](O)[C@H]4O)[C@H](O)[C@H]3O)[C@H](O)[C@H]2O)[C@H](O)[C@@H](O)[C@@H]1O ?
// result 47.1
